Where do these numbers come from? They come from patent US7863446B2.

Target: purified recombinant COX-1 (Homo sapiens, UniProt P23219)
Sequence (P23219 24-599): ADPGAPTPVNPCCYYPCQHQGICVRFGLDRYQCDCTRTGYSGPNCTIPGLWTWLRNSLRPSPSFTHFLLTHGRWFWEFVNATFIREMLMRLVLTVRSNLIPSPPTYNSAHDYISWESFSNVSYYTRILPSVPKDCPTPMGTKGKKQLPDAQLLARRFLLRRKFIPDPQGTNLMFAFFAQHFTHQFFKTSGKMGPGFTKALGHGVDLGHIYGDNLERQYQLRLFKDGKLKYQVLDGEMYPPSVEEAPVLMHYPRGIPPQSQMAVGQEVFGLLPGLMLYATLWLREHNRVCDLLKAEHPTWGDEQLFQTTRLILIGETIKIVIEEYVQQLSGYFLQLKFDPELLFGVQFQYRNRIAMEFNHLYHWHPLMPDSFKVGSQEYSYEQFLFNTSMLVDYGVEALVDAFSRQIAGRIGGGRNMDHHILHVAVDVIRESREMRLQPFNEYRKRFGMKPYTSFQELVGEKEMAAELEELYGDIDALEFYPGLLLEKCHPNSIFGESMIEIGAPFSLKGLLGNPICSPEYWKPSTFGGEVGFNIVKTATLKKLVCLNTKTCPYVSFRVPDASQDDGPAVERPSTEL
Assay: COX-1 enzyme based assay
Type: biochemical
Details: 1 μM; NA = No activity; read-out: % Inhibition in rEnzyme Assay COX-1
readoutKind: inhibition at 1 µM (%)
Answers are plain numbers, in %.

For orientation, consider the following solved cases.
NS(=O)(=O)c1cccc(-c2c(-c3ccc(F)cc3)nc(C(F)(F)F)nc2N2CCN(c3ccccn3)CC2)c1: 46.3
NS(=O)(=O)c1cccc(-c2c(-c3ccc(F)cc3)nc(C(F)(F)F)nc2N2CCN(c3ncccn3)CC2)c1: 34.4
NS(=O)(=O)c1cccc(-c2c(-c3ccccc3)nc(C(F)(F)F)nc2N2CCNCC2)c1: 8.27
CNS(=O)(=O)c1ccc(-c2c(N)nc(C(F)(F)F)nc2-c2ccc(S(C)(=O)=O)cc2)cc1: 33.8
NS(=O)(=O)c1cccc(-c2c(-c3ccccc3)nc(C(F)(F)F)nc2N2CCN(c3ccc(C(F)(F)F)cn3)CC2)c1: 6.29

Let us move to another entry and its inhibition at 1 µM.
Reading of inhibition at 1 µM for "NS(=O)(=O)c1cccc(-c2c(-c3ccccc3)nc(C(F)(F)F)nc2N2CCN(c3ccccn3)CC2)c1" with purified recombinant COX-1 (Homo sapiens, UniProt P23219): 10.2
